test system: NCI-H1651; assay: relative viability (nuclei count vs DMSO), 5 days (fraction); higher = more cells survive; details: first compound 0.8 µM
Measured relative viability, listed per entry.
Provide a numeric answer; units are not to be included.

# count of solved cases: 4
[[record]]
molecule = "O=c1cc(-c2cccc3c2Sc2ccccc2S3)oc(N2CCOCC2)c1 + O=C(c1cc(Cc2n[nH]c(=O)c3ccccc23)ccc1F)N1CCN(C(=O)C2CC2)CC1 [Olaparib] (partner 8 µM)"
target_or_system = "NCI-H1651"
numeric_result = 0.184

[[record]]
molecule = "COc1nc(C)cnc1NS(=O)(=O)c1cccnc1-c1ccc(-c2nnco2)cc1 [Zibotentan] + Cc1nc(Nc2ncc(C(=O)Nc3c(C)cccc3Cl)s2)cc(N2CCN(CCO)CC2)n1 [Dasatinib] (partner 0.075 µM)"
target_or_system = "NCI-H1651"
numeric_result = 0.445

[[record]]
molecule = "COc1nc(C)cnc1NS(=O)(=O)c1cccnc1-c1ccc(-c2nnco2)cc1 [Zibotentan] + CC(=O)Nc1cccc(-n2c(=O)n(C3CC3)c(=O)c3c(Nc4ccc(I)cc4F)n(C)c(=O)c(C)c32)c1 [Trametinib] (partner 0.02 µM)"
target_or_system = "NCI-H1651"
numeric_result = 0.832

[[record]]
molecule = "COc1nc(C)cnc1NS(=O)(=O)c1cccnc1-c1ccc(-c2nnco2)cc1 [Zibotentan] + Nc1ncn([C@H]2C[C@H](O)[C@@H](CO)O2)c(=O)n1 [Decitabine] (partner 2 µM)"
target_or_system = "NCI-H1651"
numeric_result = 0.567


Read the next record carefully.
Which relative viability is listed for COc1nc(C)cnc1NS(=O)(=O)c1cccnc1-c1ccc(-c2nnco2)cc1 [Zibotentan] + CS(=O)(=O)CCNCc1ccc(-c2ccc3ncnc(Nc4ccc(OCc5cccc(F)c5)c(Cl)c4)c3c2)o1 [Lapatinib] (partner 2 µM) ?
0.747

###

relative viability by entry:
test system: NCI-H1755; assay: relative viability (nuclei count vs DMSO), 5 days (fraction); higher = more cells survive; settings: first compound 8 µM
Answer using only a numeral; do not append any unit.

// worked examples, relative viability included
[[record]]
molecule = "O=c1cc(-c2cccc3c2Sc2ccccc2S3)oc(N2CCOCC2)c1 + Cc1cc(Nc2cc(N3CCN(C)CC3)nc(Sc3ccc(NC(=O)C4CC4)cc3)n2)n[nH]1 [Tozasertib] (partner 0.1 µM)"
target_or_system = "NCI-H1755"
quantity_name = "relative viability"
numeric_result = 0.567

[[record]]
molecule = "O=c1cc(-c2cccc3c2Sc2ccccc2S3)oc(N2CCOCC2)c1 + COc1cccc2cc(-c3nc([C@H]4CC[C@H](C(=O)O)CC4)n4ncnc(N)c34)[nH]c12 [OSI-027] (partner 0.5 µM)"
target_or_system = "NCI-H1755"
quantity_name = "relative viability"
numeric_result = 0.772


// fetch NCI-H1755 relative viability for O=c1cc(-c2cccc3c2Sc2ccccc2S3)oc(N2CCOCC2)c1 + Cc1nc(Nc2ncc(C(=O)Nc3c(C)cccc3Cl)s2)cc(N2CCN(CCO)CC2)n1 [Dasatinib] (partner 0.075 µM)
0.381

Find relative viability (NCI-H1755) for the entry O=c1cc(-c2cccc3c2Sc2ccccc2S3)oc(N2CCOCC2)c1 + Nc1nc2[nH]cc(CCc3ccc(C(=O)N[C@@H](CCC(=O)O)C(=O)O)cc3)c2c(=O)[nH]1 [Pemetrexed] (partner 0.2 µM)
0.366

Provide value of relative viability for this record tested with NCI-H1755: O=c1cc(-c2cccc3c2Sc2ccccc2S3)oc(N2CCOCC2)c1 + C[C@@H](Oc1cc(-c2cnn(C3CCNCC3)c2)cnc1N)c1c(Cl)ccc(F)c1Cl [Crizotinib] (partner 1 µM)
0.85

Requested read-out relative viability, target or system NCI-H1755, entry O=c1cc(-c2cccc3c2Sc2ccccc2S3)oc(N2CCOCC2)c1 + CC(=O)c1c(C)c2cnc(Nc3ccc(N4CCNCC4)cn3)nc2n(C2CCCC2)c1=O [Palbociclib] (partner 0.5 µM)
0.409
